Test: qHTS drug screen for cell cycle checkpoint inhibitors in PARPi-resistant BRCA-mutant ovarian cancer cell lines. (AID 1963452)
Settings: PEO1/OlaR viability, CellTiter-Glo luminescence, 96 h; active compounds read low
Response field label takes 1.0 when Z-AUC is strictly below 1 and 0.0 in all other cases.

**Query** is_below(Z-AUC, 1) for COc1cc(/C=C/C(=O)CC(=O)/C=C/c2ccc(O)c(OC)c2)ccc1O ?
**Result** 1.0

**Query** # TODO verify Z-AUC < 1 strictly for this compound: CCN1/C(=C/C(C)=O)Sc2ccc(OC)cc21
**Result** 1.0

**Query** Say whether its Z-AUC is strictly beneath 1. Entry: C[N+]1(C)C2CC(OC(=O)[C@H](CO)c3ccccc3)CC1C1OC12 (stereo not given in full)
**Result** 0.0

**Query** For this compound, is Z-AUC lower than 1? Oc1cc(O)cc(/C=C/c2ccc(O)c(O)c2)c1
**Result** 0.0

**Query** hey, is Z-AUC for CCNC(=O)[C@H]1O[C@@H](n2cnc3c(N)nc(NCCc4ccc(CCC(=O)O)cc4)nc32)[C@H](O)[C@@H]1O lower than 1 or not?
**Result** 0.0

**Query** Please determine if CCOC(=O)N1CCN(/[N+]([O-])=N/Oc2ccc([N+](=O)[O-])cc2[N+](=O)[O-])CC1 is below 1 in terms of Z-AUC.
**Result** 0.0

**Query** Bench note: check whether COc1cc(CNC(=O)CCCC/C=C/C(C)C)ccc1O shows Z-AUC below 1
**Result** 0.0

**Query** For C=CCc1cccc(/C=N/NC(=O)CN2CCN(Cc3ccccc3)CC2)c1O , is the recorded Z-AUC below the cut-off of 1?
**Result** 1.0

**Query** Determine whether this compound shows Z-AUC lower than 1 (ties excluded): N#C/C(=C\c1ccc(O)c(O)c1)C(=O)NCc1ccccc1
**Result** 0.0

* * *

Molecular target: Arylsulfatase A (Homo sapiens) (UniProt P15289)
Sequence (P15289 whole entry, looked up): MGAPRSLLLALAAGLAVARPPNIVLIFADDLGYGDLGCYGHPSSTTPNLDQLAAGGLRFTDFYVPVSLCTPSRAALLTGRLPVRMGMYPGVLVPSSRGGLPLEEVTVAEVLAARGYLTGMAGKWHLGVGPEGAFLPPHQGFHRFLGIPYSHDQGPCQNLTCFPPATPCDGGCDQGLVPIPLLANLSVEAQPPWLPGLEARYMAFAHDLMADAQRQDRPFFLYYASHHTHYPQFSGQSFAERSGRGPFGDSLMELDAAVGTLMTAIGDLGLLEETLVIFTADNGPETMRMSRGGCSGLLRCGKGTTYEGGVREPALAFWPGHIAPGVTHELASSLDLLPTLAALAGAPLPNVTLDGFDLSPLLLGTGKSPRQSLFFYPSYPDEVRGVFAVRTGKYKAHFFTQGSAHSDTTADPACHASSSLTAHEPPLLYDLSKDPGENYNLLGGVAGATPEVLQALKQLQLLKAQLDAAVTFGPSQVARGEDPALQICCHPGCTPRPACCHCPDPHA
Experiment: qHTS screen for enhancers of Arylsulfatase A (ASA1): LOPAC Validation Assay (AID 720538)
Settings: ASA enzyme activity, LOPAC qHTS enhancer assay; series mostly up to 57.5 µM
Results filed as inconclusive are left out. Active and inactive are the calls of the source. Calls come from the whole dose curve; as a rule, active = well fitted activation curve with a large enough effect; inconclusive = small, poorly fitted or top-dose-only effect; inactive = no such curve, though single readings can be large or run the other way.
ASSAY ENDPOINT: outcome

Below, 4 compounds whose answers are already recorded.
>>> observed("CSc1nc(N)c2ncn([C@@H]3O[C@H](COP(=O)(O)OP(=O)(O)OP(=O)(O)O)[C@@H](O)[C@H]3O)c2n1")
"inactive"
>>> observed("COc1ccc2c(c1)CCC1C2CC[C@@]2(C)C1CC[C@@H]2NCCCCCCN1C(=O)CCC1=O (stereo not given in full)")
"inactive"
>>> observed("Cc1cc(NC2CCCCC2)nc(-n2nc(C)cc2C)n1")
"inactive"
>>> observed("NS(=O)(=O)C#Cc1ccccc1")
"inactive"

**Query** Given Nc1nc(SCc2ccc([N+](=O)[O-])cc2)c2ncn([C@@H]3O[C@H](CO)[C@@H](O)[C@H]3O)c2n1 , state its recorded outcome.
**Result** inactive

* * *

Target: Hexokinase-4 (Homo sapiens) + Glucokinase regulatory protein (Homo sapiens) (UniProt P35557+Q14397)
Sequence (P35557 whole entry, looked up): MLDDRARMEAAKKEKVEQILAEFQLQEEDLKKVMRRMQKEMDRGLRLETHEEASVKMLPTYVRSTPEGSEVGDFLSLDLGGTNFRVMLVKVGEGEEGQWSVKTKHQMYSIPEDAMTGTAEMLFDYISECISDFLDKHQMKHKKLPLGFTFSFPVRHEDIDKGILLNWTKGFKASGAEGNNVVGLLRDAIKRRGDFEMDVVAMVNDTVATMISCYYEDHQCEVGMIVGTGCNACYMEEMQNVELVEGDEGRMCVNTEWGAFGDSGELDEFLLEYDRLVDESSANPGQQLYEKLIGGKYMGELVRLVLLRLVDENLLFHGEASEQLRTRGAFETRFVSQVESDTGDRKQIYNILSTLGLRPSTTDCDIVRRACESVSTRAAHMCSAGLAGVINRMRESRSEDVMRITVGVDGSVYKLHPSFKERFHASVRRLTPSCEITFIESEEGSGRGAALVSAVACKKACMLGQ
Sequence (Q14397 whole entry, looked up): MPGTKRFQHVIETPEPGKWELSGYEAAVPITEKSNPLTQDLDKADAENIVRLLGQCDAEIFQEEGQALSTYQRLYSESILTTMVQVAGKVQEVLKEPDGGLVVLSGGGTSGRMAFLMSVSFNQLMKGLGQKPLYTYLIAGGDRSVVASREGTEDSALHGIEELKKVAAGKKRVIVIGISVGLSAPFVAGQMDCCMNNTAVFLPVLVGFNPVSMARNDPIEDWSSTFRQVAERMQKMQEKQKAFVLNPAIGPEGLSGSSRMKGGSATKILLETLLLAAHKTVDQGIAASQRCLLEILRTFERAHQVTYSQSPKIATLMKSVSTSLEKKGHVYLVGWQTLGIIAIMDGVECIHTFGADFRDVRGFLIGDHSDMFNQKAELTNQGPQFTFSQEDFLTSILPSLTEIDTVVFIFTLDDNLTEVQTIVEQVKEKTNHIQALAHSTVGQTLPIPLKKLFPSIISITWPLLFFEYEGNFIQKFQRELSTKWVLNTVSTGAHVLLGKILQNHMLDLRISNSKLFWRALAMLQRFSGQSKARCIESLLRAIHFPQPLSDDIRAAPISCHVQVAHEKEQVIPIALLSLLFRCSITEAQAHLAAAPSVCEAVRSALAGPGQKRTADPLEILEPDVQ
Assay: qHTS assay for inhibitors of recombinant human GCK-GKRP interaction: ADP-Glo assay (AID 743206)
Conditions: ADP-Glo luminescence, 60 min; series mostly up to 76.9 µM
Calls of active or inactive are those of the source. Calls follow the shape of the dose curve; as a rule, active = well fitted curve in the direction sought with a large enough effect; inconclusive = small, poorly fitted or top-dose-only effect, or another doubt; inactive = no such curve, though single readings can be large or run the other way.
Outcome field: choose from t = active, f = inactive

**Query** What classification did C=CC(=O)c1ccc(CCCCCC)cc1 end up with in this test?
**Result** f

**Query** Lab log entry: O=C(O)CCCC[C@@H]1CCSS1 — outcome as called in the assay?
**Result** f

**Query** State the result this test recorded for O=C1O/C(=C/Br)CCC1c1cccc2ccccc12 (stereo unspecified) .
**Result** f

**Query** // param item: CC12C(=O)OC(=O)C1(C)C1CCC2O1 (stereo unspecified) ; yields the recorded call
**Result** f

**Query** Assay outcome for COc1ccc(/C=C/C(=O)Nc2ccccc2C(=O)O)cc1OC : what was it?
**Result** f

**Query** // outcome(item) with item = O=C(c1ccc(OCCCc2cnc[nH]2)cc1)C1CC1
**Result** f

**Query** Hi, do you know how CN1CC(=O)N/C1=N/C(=O)Nc1cccc(Cl)c1 came out in this test?
**Result** f

**Query** GET /call?item= Nc1nc(Cl)nc2c1ncn2[C@@H]1O[C@H](CO)[C@@H](O)[C@H]1O returns the recorded outcome of this test.
**Result** f

**Query** How did this test come out for NC(=O)C(=O)O ?
**Result** f

**Query** Please share the test call associated with CC(N)C(=O)OC(C)(C)Cc1ccc(Cl)cc1 (stereo unspecified) .
**Result** f

**Query** Which outcome was entered for the compound O=C(Nc1cccc(C(=O)Nc2ccc(S(=O)(=O)O)c3cc(S(=O)(=O)O)cc(S(=O)(=O)O)c23)c1)Nc1cccc(C(=O)Nc2ccc(S(=O)(=O)O)c3cc(S(=O)(=O)O)cc(S(=O)(=O)O)c23)c1 in this test?
**Result** t
